This listing pairs binders with measured koff.
- experimental-target: T1, Monomeric 8-histidine tagged human EGFRvIII extracellular domain (human, UniProt P00533 298-645)
- T1 construct: Analyte in all SPR assays; not shown: 8-histidine tag
- test-details: SPR, scFv-Fc captured by anti-human Fc, 37 C
The reply should contain only the number, in s⁻¹.

Solved entries (count: 2):
20E12.HL scFv-Fc protein (Fc fusion, HL: heavy-chain variable domain at the N-terminus; not shown: human IgG1 Fc moiety) EVNLVESGGGLVKPGGSLRLSCEASGFTFSYAWMSWVRQAPGKGLEWVGRIKSIADGGATDYAAPVRNRFTISRDDSRNTLYLEMHSLKTEDTAVYYCTTIPGNDAFDMWGQGTMVTVSSGGGGSGGGGSGGGGSGGGGSDIVLTQSPLSLSVTPGEPASISCRSSQSLLYSNGKNYLDWFLHKPGQSPQLLIYLGSNRASGVPDRFSGSGSGIDFILKISRVEAEDVGVYYCMQAQQTPITFGQGTRLEIK : 0.019
42G9.LH scFv-Fc protein (Fc fusion, LH: light-chain variable domain at the N-terminus; not shown: human IgG1 Fc moiety) EVVLTQSPATLSVSPGERATLSCRASQSVRSNLAWYQQKSGQAPRLLIYGSTIRATGVPARFSGSGSGTEFTLTISSLQSEDFAVYYCQQYSDWPFTFGPGTKVDIKGGGGSGGGGSGGGGSGGGGSQVTLKESGPVLLKPTETLTLTCTVSGFSLSNPRMGVSWIRQPPGKALEWFAHIFSTDEKSLKLSLRSRLTLSKDTSKSQVVLTMTNMAPVDSATYYCARDSSNYEGYFDFWGQGTLVTVSS : 0.00088

Okay, next one:
Need koff of 32A10.LH scFv-Fc protein (Fc fusion, LH: light-chain variable domain at the N-terminus; not shown: human IgG1 Fc moiety) EVVMTQSPATLSVSPGERVTLSCRASQSVSSNFAWYQQRPGQAPRLLLYGATTRATGLPGRFSGSGSGTENILTISSLQSEDFAIYFCQQYKDWPFTFGPGSKVDIKGGGGSGGGGSGGGGSGGGGSQVTLKESGPVLVKPTETLTLTCTVSGFSLSNARMGVSWIRQPPGKALEWLAHIFSTDEKSIRRSLRSRLTLSKDTSKSQVVLTMTNMDPVDTATYFCARDSSNYEGYFDYWGQGTLVTVSS , thanks.
0.0012

# credit: patent US20190144550A1
